# kon listing for each entry below
Assayed system: Human SARS-CoV-2_Wuhan S (SmT1) (SARS-CoV-2 (Wuhan), UniProt P0DTC2 14-1208)
Assay method text: SPR, VHH over immobilised S

| Binder | kon [M⁻¹ s⁻¹] |
| --- | --- |
| NRCoV2-SR01 VHH (VHH) VHH: EVQLVQSGGGSVQAGGSLRLSCVASGFTFDNYAIGWFRQAPGKEREGVSCISGNGGVTIYADSVKGRFTISRDNAKNLVYLQMNSLKPEDTAVYYCAATGIRSTWSVYGCSRLAGPYDYWGQGTQVTVSS | 1.43e+06 |
| NRCoV2-03 VHH (VHH) VHH: EVQLVSSGGGLVQAGGSLRLSCTASGITFSYYAMGWYRQAPGQPRELVASMSNMDSTIYADSVKGRFTISRDNAKTTIYLQMNNLKPEDTAVYFCNIYGPTYSTRRNEYWGQGTQVTVSS | 116000 |
| NRCoV2-11 VHH (VHH) VHH: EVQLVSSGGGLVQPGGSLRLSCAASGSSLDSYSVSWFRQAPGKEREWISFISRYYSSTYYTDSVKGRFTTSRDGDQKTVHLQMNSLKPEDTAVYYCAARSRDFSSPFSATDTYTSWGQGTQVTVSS | 964000 |
| NRCoV2-18 VHH (VHH) VHH: EVQLVESGGGLVQAGGSLRLSCVASGITISGYNMAWWRQTRGKQTERVAFINSGGSTTYSDSVKGRFTISRDNGKNTAYLQMNSLNAEDTADYFCSLHTSHDYWGQGTQVTVSS | 295000 |
